# assayed target: T1, human nectin-4 on cells (human, UniProt Q96NY8 32-510)
# T1 construct: also called Nectin-4 receptor
# T1 sequence: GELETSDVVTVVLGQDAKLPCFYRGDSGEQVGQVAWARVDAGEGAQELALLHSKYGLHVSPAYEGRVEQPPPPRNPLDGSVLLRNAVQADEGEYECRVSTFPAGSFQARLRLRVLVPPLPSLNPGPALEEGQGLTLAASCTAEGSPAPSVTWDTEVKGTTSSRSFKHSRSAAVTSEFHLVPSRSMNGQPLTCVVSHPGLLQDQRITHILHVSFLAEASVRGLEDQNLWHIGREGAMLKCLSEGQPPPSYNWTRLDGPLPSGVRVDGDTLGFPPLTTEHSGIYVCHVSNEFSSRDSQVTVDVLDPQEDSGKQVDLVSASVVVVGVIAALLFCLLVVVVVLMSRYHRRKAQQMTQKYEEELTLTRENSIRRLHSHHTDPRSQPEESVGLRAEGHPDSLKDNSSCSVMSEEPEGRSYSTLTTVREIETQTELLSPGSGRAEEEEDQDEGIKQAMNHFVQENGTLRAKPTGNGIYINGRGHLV
# experimental details: flow cytometry, NCI-H1781 cells (low endogenous nectin-4)
Give Average Max MFI for every item shown.
Answers are plain numbers, in MFI.

Solved cases below.
[[record]]
binder = "enfortumab (antibody, V domains shown) VH: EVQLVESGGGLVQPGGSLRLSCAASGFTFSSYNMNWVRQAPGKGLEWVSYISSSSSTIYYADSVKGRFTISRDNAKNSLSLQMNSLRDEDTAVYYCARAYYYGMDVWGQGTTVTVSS VL: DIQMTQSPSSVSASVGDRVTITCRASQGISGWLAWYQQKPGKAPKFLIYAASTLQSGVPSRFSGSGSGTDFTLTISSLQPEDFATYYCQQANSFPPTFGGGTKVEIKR"
meas_value = 91000

[[record]]
binder = "Ab6 (antibody, human IgG1, lambda, L234A L235A, V domains shown, Unconjugated antibody; also called Antibody 6; nectin-4 antibody Ab6) VH: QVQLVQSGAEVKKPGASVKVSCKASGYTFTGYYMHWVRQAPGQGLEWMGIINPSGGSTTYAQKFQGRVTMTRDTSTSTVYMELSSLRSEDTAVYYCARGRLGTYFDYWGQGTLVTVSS VL: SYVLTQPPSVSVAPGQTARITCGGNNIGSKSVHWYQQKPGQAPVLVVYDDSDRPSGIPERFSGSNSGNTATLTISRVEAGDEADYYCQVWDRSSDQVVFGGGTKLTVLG"
meas_value = 85000


Attention now shifts to the item below.
Given the binder Ab8 (antibody, human IgG1, lambda, L234A L235A, V domains shown, Unconjugated antibody; also called Antibody 8; nectin-4 antibody Ab8) VH: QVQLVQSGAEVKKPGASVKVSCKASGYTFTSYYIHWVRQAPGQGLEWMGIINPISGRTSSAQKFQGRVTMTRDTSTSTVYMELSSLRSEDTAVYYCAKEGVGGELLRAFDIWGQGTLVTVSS VL: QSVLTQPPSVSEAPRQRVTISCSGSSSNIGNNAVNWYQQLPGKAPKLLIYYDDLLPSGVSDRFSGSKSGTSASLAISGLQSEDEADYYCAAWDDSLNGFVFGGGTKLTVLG , write its reported Average Max MFI.
90000
